Value type: IC50 (µM)
A number alone suffices; assume µM.

API: value(readout= IC50, system= Aurora A (Homo sapiens), query= `CNC(=O)c1cnc(N)c2c(-c3ccc(NC(=O)Nc4cccc(C)c4)cc3)csc12` )
0.058

---

# Tested on: KDR (Homo sapiens)
# Sequence (P35968 789-1354): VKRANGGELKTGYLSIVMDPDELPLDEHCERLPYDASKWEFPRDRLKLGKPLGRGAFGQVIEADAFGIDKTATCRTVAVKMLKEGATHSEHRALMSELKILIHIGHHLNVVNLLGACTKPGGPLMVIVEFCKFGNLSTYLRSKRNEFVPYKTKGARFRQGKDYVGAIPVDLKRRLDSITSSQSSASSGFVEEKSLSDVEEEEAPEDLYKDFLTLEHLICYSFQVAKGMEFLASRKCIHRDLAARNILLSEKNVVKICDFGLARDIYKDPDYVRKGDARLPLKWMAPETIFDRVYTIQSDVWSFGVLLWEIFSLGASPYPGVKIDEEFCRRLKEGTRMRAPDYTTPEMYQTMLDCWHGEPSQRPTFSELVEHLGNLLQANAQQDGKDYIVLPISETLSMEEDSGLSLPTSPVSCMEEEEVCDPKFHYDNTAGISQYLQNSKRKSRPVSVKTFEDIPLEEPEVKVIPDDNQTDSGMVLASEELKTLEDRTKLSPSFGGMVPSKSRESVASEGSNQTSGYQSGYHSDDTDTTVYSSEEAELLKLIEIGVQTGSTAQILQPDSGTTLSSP
Value type: IC50 (nM)
A number alone suffices; assume nM.

Given the entry CNC(=O)c1cnc(N)c2c(-c3ccc(NC(=O)Nc4cccc(C)c4)cc3)csc12 [Example 2] , report its measured IC50.
2

---

# Tested on: cKIT (Homo sapiens, UniProt P10721)
# Sequence (P10721 544-976 limits assumed): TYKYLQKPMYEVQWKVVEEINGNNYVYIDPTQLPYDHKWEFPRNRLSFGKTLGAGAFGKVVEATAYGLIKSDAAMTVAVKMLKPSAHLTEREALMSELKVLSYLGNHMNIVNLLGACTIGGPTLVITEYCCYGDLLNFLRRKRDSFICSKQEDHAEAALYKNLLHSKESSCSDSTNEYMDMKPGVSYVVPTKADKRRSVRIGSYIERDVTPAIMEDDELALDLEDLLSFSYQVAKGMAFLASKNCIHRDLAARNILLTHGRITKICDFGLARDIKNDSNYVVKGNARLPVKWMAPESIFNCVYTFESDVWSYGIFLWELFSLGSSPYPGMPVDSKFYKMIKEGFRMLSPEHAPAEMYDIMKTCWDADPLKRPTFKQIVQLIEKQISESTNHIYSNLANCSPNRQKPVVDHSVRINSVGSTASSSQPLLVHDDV
Value type: IC50 (nM)
A number alone suffices; assume nM.

Given the entry CNC(=O)c1cnc(N)c2c(-c3ccc(NC(=O)Nc4cccc(C)c4)cc3)csc12 [Example 2] , report its measured IC50.
6
